Each entry below carries its recorded Plant response rating (0 to 10 scale), Barnyardgrass.
test system: barnyardgrass; experiment: Test B preemergence/postemergence greenhouse plant response rating 0 to 10; format: in vivo, Echinochloa crus-galli; settings: PREEMERGENCE, Rate 200 g/ha
RECORDED_ENDPOINT: Plant response rating (0 to 10 scale), Barnyardgrass

GIVEN_SMILES	ASSAY_RESULT
CC(C)Oc1cc(-c2nn3c(c2Cl)CCCC3)c(Cl)cc1Cl	0
O=C1COc2cc(F)c(-c3nn4c(c3Br)CCCC4)cc2N1	6
COCOc1cc(-c2nn3c(c2Br)CCCC3)c(F)cc1Cl	9
CON=C(C)c1cc(-c2nn3c(c2Cl)CCCC3)c(F)cc1Cl	6
